System: tetA promoter (PtetA)-lacZ reporter in E. coli KM3
Type: cell-based
Conditions: Table 6, reverse repressor hits; sulfometuron, same plate assay format as Table 4
Parameter relative β-galactosidase activity, inducer Sm: see the listing below.

L1-39: library L1 reverse repressor hit (SEQ ID NO: 1206-1213) (protein, rSuR L1-39) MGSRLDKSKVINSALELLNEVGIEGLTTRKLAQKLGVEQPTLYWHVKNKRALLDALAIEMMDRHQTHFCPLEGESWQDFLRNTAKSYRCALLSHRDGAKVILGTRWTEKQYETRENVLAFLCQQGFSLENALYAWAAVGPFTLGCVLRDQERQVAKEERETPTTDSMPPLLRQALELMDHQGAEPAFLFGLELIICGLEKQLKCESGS ... 0.91

**Query** I am curious: what relative β-galactosidase activity, inducer Sm value has been reported for L1-25: library L1 reverse repressor hit (SEQ ID NO: 1206-1213) (protein, rSuR L1-25) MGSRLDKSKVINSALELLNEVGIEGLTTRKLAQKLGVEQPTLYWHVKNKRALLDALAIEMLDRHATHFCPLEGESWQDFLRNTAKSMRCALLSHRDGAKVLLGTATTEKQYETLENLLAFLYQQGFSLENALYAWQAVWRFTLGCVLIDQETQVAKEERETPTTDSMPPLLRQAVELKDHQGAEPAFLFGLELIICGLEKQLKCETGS ?
**Result** 0.63
